Parameter: inhibition. Scope: all listed entries.
# measurementTarget: P2Y purinoceptor 1 (Meleagris gallopavo) (UniProt P49652)
# Sequence (P49652 whole entry): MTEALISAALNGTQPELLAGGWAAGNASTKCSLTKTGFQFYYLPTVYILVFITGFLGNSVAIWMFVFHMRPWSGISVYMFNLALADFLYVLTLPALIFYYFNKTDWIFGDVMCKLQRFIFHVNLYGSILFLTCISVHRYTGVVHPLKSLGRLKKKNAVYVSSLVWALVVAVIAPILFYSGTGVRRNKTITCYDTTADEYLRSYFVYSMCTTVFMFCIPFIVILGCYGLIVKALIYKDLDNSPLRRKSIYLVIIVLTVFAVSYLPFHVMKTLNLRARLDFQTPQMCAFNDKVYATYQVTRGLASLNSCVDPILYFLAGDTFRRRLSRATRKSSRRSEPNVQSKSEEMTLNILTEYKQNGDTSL
# protocolDetails: Antagonist activity for inhibition of PLC elicited by 10 nM 2-MeSADP at P2Y purinoceptor 1 in turkey erythrocyte membranes
# Type: functional, cell membranes

[
  {
    "smilesRepresentation": "C=Cc1nc2c(N)ncnc2n1[C@H]1C[C@H](OP(=O)(O)O)[C@@H](COP(=O)(O)O)O1",
    "unitSpec": "%",
    "inhibition": 59
  },
  {
    "smilesRepresentation": "Nc1ncnc2c1ncn2[C@@H]1O[C@H](COP(=O)(O)O)[C@@H](OP(=O)(O)O)[C@H]1O",
    "unitSpec": "%",
    "inhibition": 56
  },
  {
    "smilesRepresentation": "C=CCSc1nc(NC)c2ncn([C@H]3C[C@H](OP(=O)(O)O)[C@@H](COP(=O)(O)O)O3)c2n1",
    "unitSpec": "%",
    "inhibition": 97
  },
  {
    "smilesRepresentation": "Cc1nc2c(N)ncnc2n1[C@H]1C[C@H](OP(=O)(O)O)[C@@H](COP(=O)(O)O)O1",
    "unitSpec": "%",
    "inhibition": 53
  },
  {
    "smilesRepresentation": "CNc1nc(N)nc2c1ncn2[C@H]1C[C@H](OP(=O)(O)O)[C@@H](COP(=O)(O)O)O1",
    "unitSpec": "%",
    "inhibition": 96
  },
  {
    "smilesRepresentation": "CCCSc1nc(N)c2ncn([C@H]3C[C@H](OP(=O)(O)O)[C@@H](COP(=O)(O)O)O3)c2n1",
    "unitSpec": "%",
    "inhibition": 46
  }
]

---

Parameter: Increase. Scope: all listed entries.
# measurementTarget: P2Y purinoceptor 1 (Meleagris gallopavo)
# Sequence (P49652 whole entry): as above
# protocolDetails: Agonist activity for stimulation of PLC at P2Y purinoceptor 1 in the turkey erythrocyte membranes.
# Assay type: functional, cell membranes

[
  {
    "smilesRepresentation": "CNc1nc(SC)nc2c1ncn2[C@H]1C[C@H](OP(=O)(O)O)[C@@H](COP(=O)(O)O)O1",
    "Increase (%)": 6
  },
  {
    "smilesRepresentation": "[N-]=[N+]=N[C@H]1[C@@H](OP(=O)(O)O)[C@H](n2cnc3c(N)ncnc32)O[C@@H]1COP(=O)(O)O",
    "Increase (%)": 46
  },
  {
    "smilesRepresentation": "[N-]=[N+]=N[C@H]1[C@@H](OP(=O)(O)O)[C@H](n2cnc3c(N)ncnc32)O[C@@H]1COP(=O)(O)OP(=O)(O)OP(=O)(O)O",
    "Increase (%)": 49
  },
  {
    "smilesRepresentation": "Nc1ncnc2c1ncn2[C@H]1C[C@H](OP(=O)(O)O)[C@@H](COP(=O)(O)O)S1",
    "Increase (%)": 56
  }
]

---

# measurementTarget: P2Y purinoceptor 1 (Meleagris gallopavo)
# protocolDetails: Concentration at which 50% of the maximal effect (stimulation of PLC at P2Y1 receptor in the turkey erythrocyte membranes) is reached
# Assay type: functional, cell membranes

[
  {
    "smilesRepresentation": "CCCSc1nc(N)c2ncn([C@H]3C[C@H](OP(=O)(O)O)[C@@H](COP(=O)(O)O)O3)c2n1",
    "measurementTarget": "P2Y purinoceptor 1 (Meleagris gallopavo)",
    "EC50": "1.71 µM"
  },
  {
    "smilesRepresentation": "CNc1nc(I)nc2c1ncn2[C@H]1C[C@H](OP(=O)(O)O)[C@@H](COP(=O)(O)O)O1",
    "measurementTarget": "P2Y purinoceptor 1 (Meleagris gallopavo)",
    "EC50": "4.44 µM"
  },
  {
    "smilesRepresentation": "Nc1ncnc2c1ncn2[C@H]1C[C@H](OP(=O)(O)O)[C@@H](COP(=O)(O)O)S1",
    "measurementTarget": "P2Y purinoceptor 1 (Meleagris gallopavo)",
    "EC50": "12.2 µM"
  },
  {
    "smilesRepresentation": "CNc1nc(N)nc2c1ncn2[C@@H]1C[C@H](COP(=O)(O)O)[C@@H](OP(=O)(O)O)C1",
    "measurementTarget": "P2Y purinoceptor 1 (Meleagris gallopavo)",
    "EC50": "6.49 µM"
  }
]
